# System: Human Plasma
# EXPERIMENT: Anticoagulation in human plasma, thrombin time (TT)
# Assay type: biochemical
# TEST_PARAMETERS: concentration required to double the thrombin time
Non-standard residues stand in square brackets, D forms with d. Residues, ends and D or L forms follow the SMILES beside them. dNMeCha = CN[C@H](CC1CCCCC1)C(=O)O
QUANTITY_KIND: 2 × Clotting time, TT (ng/mL)
The answer is to be given in ng/mL; state only the numeric part.

CCCS(=O)(=O)N[C@H](Cc1ccccc1)C(=O)N1CCC[C@H]1C(=O)N[C@H](C=O)CCCNC(=N)N.Cl [Example 9, n-Pr-SO2 -D-Phe-Pro-Arg-H.HCl]; 6
CN[C@H](CC1CCCCC1)C(=O)N1CCC[C@H]1C(=O)N[C@H](C=O)CCCNC(=N)N.Cl [Example 31, Me-D-Cha-Pro-Arg-H.HCl] (H-[dNMeCha]-Pro-Arg-aldehyde); 18

Now turn to the next compound.
Sample Cl.N=C(N)NCCC[C@@H](C=O)NC(=O)[C@@H]1CCCN1C(=O)[C@@H](CC1CCCCC1)NCC(=O)O [Example 36, HOCCH2 -D-Cha-Pro-ArgH.HCl] ; 2 × Clotting time, TT observed: 9

###

# TARGET_OR_TEST_SYSTEM: factor Xa (Homo sapiens)
# Construct: Human factors X, Xa, IXa, XIa, and xIIa are purchased from Enzyme Research Laboratories; purchased Enzyme Research Laboratories, South Bend, Ind
# EXPERIMENT: Serine protease inhibition, factor Xa (chromogenic substrate), Kass
# Type: biochemical
# TEST_PARAMETERS: substrate N-Benzoyl-Ile-Glu-Gly-Arg-p-nitroanilide
# Procedure: The assay is carried out by mixing 50 μl buffer (0.03M Tris, 0.15M NaCl, pH 7.4), 25 μl of human thrombin solution (purified human thrombin Enzyme Research Laboratories, South Bend, Ind.) at 8 NIH units/ml and 25 μl of test compound in a solvent (50% aqueous methanol (v:v)). Then 150 μl of an aqueous solution of the chromogenic substrate (at 0.25 mg/ml) are added and the rates of hydrolysis of the substrate are measured by monitoring the reactions at 405 nm for the release of p-nitroaniline. […]
Catalogue of compounds with associated Enzyme Kass, Xa

Consider the following illustrative entries.
Cl.N=C(N)NCCC[C@@H](C=O)NC(=O)[C@@H]1CCCN1C(=O)[C@@H](Cc1ccccc1)NS(=O)(=O)c1ccc(F)cc1F [Example 14, 2,4-F-PhSO2 -D-Phe-Pro-Arg-H-HCl]; 11 L/mol × 10^6
CC(C)S(=O)(=O)N[C@H](Cc1ccccc1)C(=O)N1CCC[C@H]1C(=O)N[C@H](C=O)CCCNC(=N)N.Cl [Example 11, i-Pr-SO2 -D-Phe-Pro-Arg-H-HCl]; 6.0 L/mol × 10^6
Cl.N=C(N)NCCC[C@@H](C=O)NC(=O)[C@@H]1CCCN1C(=O)[C@@H](CC1CCCCC1)NCC(=O)O [Example 36, HOCCH2 -D-Cha-Pro-ArgH.HCl]; 40.5 L/mol × 10^6
Cl.Cn1c(C(=O)NC(CC2CCCCC2)C(=O)N2CCCC2C(=O)NC(C=O)CCCN=C(N)N)cc2ccccc21 [Example 5, NMI-D-Cha-Pro-Arg-H.HCl]; 4.6 L/mol × 10^6
CCS(=O)(=O)N[C@H](CC1CCCCC1)C(=O)N1CCC[C@H]1C(=O)N[C@H](C=O)CCCNC(=N)N.Cl [Example 21, EtSO2 -D-Cha-Pro-Arg-H.HCl]; 20 L/mol × 10^6
CCCS(=O)(=O)N[C@H](Cc1ccccc1)C(=O)N1CCC[C@H]1C(=O)N[C@H](C=O)CCCNC(=N)N.Cl [Example 9, n-Pr-SO2 -D-Phe-Pro-Arg-H.HCl]; 13 L/mol × 10^6
Cl.N=C(N)NCCC[C@@H](C=O)NC(=O)[C@@H]1CCCN1C(=O)[C@@H](Cc1ccccc1)NS(=O)(=O)c1ccc(C(=O)O)cc1 [Example 18, 4-(HO2 C)-C6 H4 SO2 -D-Phe-Pro-Arg-H.HCl]; 2.0 L/mol × 10^6
CC(=O)N[C@H](Cc1ccccc1)C(=O)N1CCC[C@H]1C(=O)N[C@H](C=O)CCCN=C(N)N.Cl [Example 23, Ac-D-Phe-Pro-Arg-H.HCl]; 0.066 L/mol × 10^6
Cl.NC(N)=NCCCC(C=O)NC(=O)C1CCCN1C(=O)C(Cc1ccccc1)NC(=O)Cc1cccnc1 (centres unmarked); 0.067 L/mol × 10^6
Cl.N=C(N)NCCC[C@@H](C=O)NC(=O)[C@@H]1CCCN1C(=O)[C@@H](Cc1ccccc1)NS(=O)(=O)c1nccs1 [Example 19, 2-Thiazolyl-SO2 -D-Phe-Pro-Arg-H-HCl]; 2.8 L/mol × 10^6

Sample Cl.Cn1c(C(=O)NC(Cc2ccccc2)C(=O)N2CCCC2C(=O)NC(C=O)CCCN=C(N)N)cc2ccccc21 [Example 1, NMI-D-Phe-Pro-Arg-H.HCl] ; Enzyme Kass, Xa observed: 0.51 L/mol × 10^6

###

Catalogue of compounds with associated 2 × Clotting time, TT
# Test system: Human Plasma
# EXPERIMENT: Anticoagulation in human plasma, thrombin time (TT)
# Format: biochemical
# TEST_PARAMETERS: concentration required to double the thrombin time
# Description: Dog plasma and rat plasma are obtained from conscious mixed-breed hounds (either sex, Hazelton-LRE, Kalamazoo, Mich., U.S.A.) or from anesthetized male Sprague-Dawley rats (Harlan Sprague-Dawley, Inc., Indianapolis, Ind., U.S.A.) by venipuncture into 3.8 percent citrate. […] The prothrombin time (PT) is measured by adding 0.05 ml saline and 0.05 ml Thromboplastin-C reagent to 0.05 ml test plasma. […]
The answer is to be given in ng/mL; state only the numeric part.

CN(C)S(=O)(=O)N[C@H](Cc1ccccc1)C(=O)N1CCC[C@H]1C(=O)N[C@H](C=O)CCCNC(=N)N.Cl [Example 12, Me2 NSO2 -D-Phe-Pro-Arg-H.HCl]; 46
Cl.N=C(N)NCCC[C@@H](C=O)NC(=O)[C@@H]1CCCN1C(=O)[C@@H](Cc1ccccc1)NS(=O)(=O)c1ccc(F)cc1F [Example 14, 2,4-F-PhSO2 -D-Phe-Pro-Arg-H-HCl]; 21
CCS(=O)(=O)N[C@@H](C(=O)N1CCC[C@H]1C(=O)N[C@H](C=O)CCCNC(=N)N)C1CCCCC1.Cl [Example 22, EtSO2 -D-Chg-Pro-Arg-H.HCl]; 46
Cl.N=C(N)NCCC[C@@H](C=O)NC(=O)[C@@H]1CCCN1C(=O)[C@@H](Cc1ccccc1)NS(=O)(=O)c1ccc(C(=O)O)cc1 [Example 18, 4-(HO2 C)-C6 H4 SO2 -D-Phe-Pro-Arg-H.HCl]; 120
CCOC(=O)N[C@H](CC1CCCCC1)C(=O)N1CCC[C@H]1C(=O)N[C@H](C=O)CCCN=C(N)N.Cl [Example 34, EtOCO-D-Cha-Pro-Arg-H.HCl]; 48
CCCCS(=O)(=O)N[C@H](Cc1ccccc1)C(=O)N1CCC[C@H]1C(=O)N[C@H](C=O)CCCNC(=N)N.Cl [Example 10, n-Bu-SO2 -D-Phe-Pro-Arg-H.HCl]; 18
CC(C)S(=O)(=O)N[C@H](Cc1ccccc1)C(=O)N1CCC[C@H]1C(=O)N[C@H](C=O)CCCNC(=N)N.Cl [Example 11, i-Pr-SO2 -D-Phe-Pro-Arg-H-HCl]; 13
Cc1noc(C)c1S(=O)(=O)N[C@H](Cc1ccccc1)C(=O)N1CCC[C@H]1C(=O)N[C@H](C=O)CCCNC(=N)N.Cl; 33
Cl.Cn1c(C(=O)NC(CC2CCCCC2)C(=O)N2CCCC2C(=O)NC(C=O)CCCN=C(N)N)cc2ccccc21 [Example 5, NMI-D-Cha-Pro-Arg-H.HCl]; 110
COCC(=O)N[C@H](Cc1ccccc1)C(=O)N1CCC[C@H]1C(=O)N[C@H](C=O)CCCNC(=N)N.Cl [Example 24, CH3 OCH2 CO-D-Phe-Pro-Arg-H.HCl]; 38

Sample CCS(=O)(=O)N[C@H](CC1CCCCC1)C(=O)N1CCC[C@H]1C(=O)N[C@H](C=O)CCCNC(=N)N.Cl [Example 21, EtSO2 -D-Cha-Pro-Arg-H.HCl] ; 2 × Clotting time, TT observed: 25

###

Catalogue of compounds with associated Enzyme Kass, Xa
# TARGET_OR_TEST_SYSTEM: factor Xa (Homo sapiens, UniProt P00742)
# Construct: Human factors X, Xa, IXa, XIa, and xIIa are purchased from Enzyme Research Laboratories; purchased Enzyme Research Laboratories, South Bend, Ind
# Sequence (P00742 235-488 limits assumed): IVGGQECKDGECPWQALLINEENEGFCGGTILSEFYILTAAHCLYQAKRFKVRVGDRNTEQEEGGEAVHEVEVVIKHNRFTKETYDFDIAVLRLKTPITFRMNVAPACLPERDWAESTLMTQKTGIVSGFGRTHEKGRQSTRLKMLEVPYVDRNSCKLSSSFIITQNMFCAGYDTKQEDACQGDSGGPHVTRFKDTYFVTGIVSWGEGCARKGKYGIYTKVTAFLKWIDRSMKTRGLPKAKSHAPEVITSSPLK
# Sequence (P00742 41-179 partner limits assumed): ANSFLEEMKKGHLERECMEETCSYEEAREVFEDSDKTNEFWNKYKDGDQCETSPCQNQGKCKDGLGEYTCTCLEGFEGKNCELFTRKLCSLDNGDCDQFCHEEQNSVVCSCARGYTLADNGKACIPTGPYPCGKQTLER
# EXPERIMENT: Serine protease inhibition, factor Xa (chromogenic substrate), Kass
# Type: biochemical
# TEST_PARAMETERS: substrate N-Benzoyl-Ile-Glu-Gly-Arg-p-nitroanilide
Non-standard residues stand in square brackets, D forms with d. Residues, ends and D or L forms follow the SMILES beside them. dNMeCha = CN[C@H](CC1CCCCC1)C(=O)O
The answer is to be given in L/mol × 10^6; state only the numeric part.

Consider the following illustrative entries.
CCCN(CCC)S(=O)(=O)c1ccc(C(=O)N[C@H](Cc2ccccc2)C(=O)N2CCC[C@H]2C(=O)N[C@H](C=O)CCCNC(=N)N)cc1.Cl [Example 29]; 0.32
Cc1noc(C)c1S(=O)(=O)N[C@H](Cc1ccccc1)C(=O)N1CCC[C@H]1C(=O)N[C@H](C=O)CCCNC(=N)N.Cl [Example 16]; 11
Cl.NC(N)=NCCCC(C=O)NC(=O)C1CCCN1C(=O)C(Cc1ccccc1)NC(=O)c1ccc2ccccc2n1 (stereo not shown) [Example 2]; 0.16

Sample CCS(=O)(=O)N[C@@H](C(=O)N1CCC[C@H]1C(=O)N[C@H](C=O)CCCNC(=N)N)c1ccccc1.Cl [Example 20, EtSO2 -D-Phg-Pro-Arg-H.HCl] ; Enzyme Kass, Xa observed: 45

Sample Cl.N=C(N)NCCC[C@@H](C=O)NC(=O)[C@@H]1CCCN1C(=O)[C@@H](Cc1ccccc1)NS(=O)(=O)c1ccccc1 [Example 13, PhSO2 -D-Phe-Pro-Arg-H.HCl] ; Enzyme Kass, Xa observed: 3.6

Sample COc1ccc(OC)c(S(=O)(=O)N[C@H](Cc2ccccc2)C(=O)N2CCC[C@H]2C(=O)N[C@H](C=O)CCCNC(=N)N)c1.Cl [Example 15, 2,5-(MeO)2 -PhSO2 -D-Phe-Pro-Arg-H-HCl] ; Enzyme Kass, Xa observed: 8.8

Sample Cl.N=C(N)NCCC[C@@H](C=O)NC(=O)[C@@H]1CCCN1C(=O)[C@@H](Cc1ccccc1)NCC1CCCCC1 [Example 30, cyclohexyl-CH2 -D-phe-pro-Arg-H.HCl] ; Enzyme Kass, Xa observed: 0.11

Sample CN[C@H](CC1CCCCC1)C(=O)N1CCC[C@H]1C(=O)N[C@H](C=O)CCCNC(=N)N.Cl [Example 31, Me-D-Cha-Pro-Arg-H.HCl] (H-[dNMeCha]-Pro-Arg-aldehyde) ; Enzyme Kass, Xa observed: 5.6

Sample CN(C)S(=O)(=O)N[C@H](Cc1ccccc1)C(=O)N1CCC[C@H]1C(=O)N[C@H](C=O)CCCNC(=N)N.Cl [Example 12, Me2 NSO2 -D-Phe-Pro-Arg-H.HCl] ; Enzyme Kass, Xa observed: 3.9
